meta.source: patent US20230220104A1

// reported IC50 of AMP degradation suppressive function, MDA-MB-231 cells for each item listed
Molecular target: T1, human CD73 on cells (H322, MDA-MB-231, HT-144, T cells, CD73-transfected HEK293T) (human, UniProt P21589 27-549)
T1 sequence (looked up): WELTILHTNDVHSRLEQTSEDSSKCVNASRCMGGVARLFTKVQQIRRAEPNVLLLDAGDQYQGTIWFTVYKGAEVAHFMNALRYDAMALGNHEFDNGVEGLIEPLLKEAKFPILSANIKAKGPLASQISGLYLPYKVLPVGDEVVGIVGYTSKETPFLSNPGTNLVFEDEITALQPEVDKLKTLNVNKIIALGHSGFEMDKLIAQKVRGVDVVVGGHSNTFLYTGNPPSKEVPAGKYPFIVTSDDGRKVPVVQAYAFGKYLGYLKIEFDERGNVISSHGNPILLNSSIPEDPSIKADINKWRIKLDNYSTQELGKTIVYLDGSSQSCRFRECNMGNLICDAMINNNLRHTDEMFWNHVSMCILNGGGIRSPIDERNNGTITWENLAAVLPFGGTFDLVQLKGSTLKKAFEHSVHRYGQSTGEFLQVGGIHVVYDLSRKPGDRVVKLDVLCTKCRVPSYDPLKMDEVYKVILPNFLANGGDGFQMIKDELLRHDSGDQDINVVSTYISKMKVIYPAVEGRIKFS
Test: cell-based or functional assay
Numbers only; they are read as µg/mL.

BINDER: 002_6_c antibody (antibody, V domains shown) VH: QVQMKQSGPELVKPGASVKIPCKASGYTFTDSNMDWVKQSHGESLEWIGDINPNNGGTIYNQKFKGKVTLTIDKSSSTAYMELRSLTSEDTAVYYCARTNWDYAMDYWGQGTSVTVSS VL: DIQMTQSPSSMYASLGERVTITCKASQDINSQLSWFQQKPGKSPKTLIYRANRLIDGVPSRFSGSGSGQDYSLTISSLEYEDMGIYYCLQYDVFPRTFGGGTKLELK
READOUT_VALUE: 0.04
//
BINDER: 006_m antibody (antibody, V domains shown) VH: QVQLQQPGAELVKPGVSVKLSCKASGYTFTSYWMHWVKQRPGQGPEWIGEINPSNARTNYNENFKSKATLTVDKSSTTAYMHFSRLTSEDSAVYYCARRGTSGNYFDFWGQGTTVTVSS VL: DIQMTQSPSSMYASLGERVTITCKASQDINTYLSWFQQKPGKSPKTLIYRANRLVDGVPSRFSGSGSGEDYSLTISSLEYEDMGIYYCLQYDEFPYTFGGGTRLEIK
READOUT_VALUE: 0.032
//
BINDER: 008_m antibody (antibody, V domains shown) VH: QVQLKQSGAELVKPGASVKLSCKASGYTFTSYWMHWVKQRPGQGPEWIGEINPSNGRTNYNEKFKNRATLTVDKSSSTAYMQLSRLTSEDSAVYYCARRGTSGNYFDYWGQGTTLTVSS VL: DIQMTQSPSSMYASLGERVTITCKASQDINTYLSWFQQKPGKSPKTLIYRANRLVDGVPSRFSGSGSGEDYSLTISSLEYEDMGIYYCLQYDEFPYTFGGGTRLEIK
READOUT_VALUE: 0.031

Now look at this entry.
Input: Endpoint output: IC50 of AMP degradation suppressive function, MDA-MB-231 cells of 007_m antibody (antibody, V domains shown) VH: QVQLQQPGAELVRPGASVKLSCKASGYTFTSYWMNWVKQRPEQGLEWIGKIDPYDSETHYNQKFKDKAILTVDKSSSTAFMQLSSLTSEDSAVYYCARIRYGTFDYWGQGTTLTVSS VL: DIVMTQSPSSMYASLGERVTITCKASQDINNYLSWFQQKPGKSPKTLIYRANILVDGVPSGFSGSGSGQDYSLTISSLEYEDMGIYYCLQYDEFPYTFGGGTRLEIK . Value?
Output: 0.041
